system: HeLa; test: Cytotoxicity against human HeLa cells after 72 hrs by MTT assay; assay type: functional, cell-based
reportedProperty: IC50

compound	endpointValue
C[C@@H]1CC[C@@]2(OC1)O[C@H]1C[C@H]3[C@@H]4CC=C5C[C@@H](O[C@@H]6O[C@H](CO)[C@@H](O[C@@H]7OC[C@@H](O)[C@@H](O[C@@H]8O[C@@H](C)[C@H](O[C@@H]9O[C@@H](C)[C@H](O)[C@@H](O)[C@H]9O)[C@@H](O)[C@H]8O)[C@@H]7O)[C@H](O)[C@H]6O[C@@H]6O[C@@H](C)[C@H](O)[C@@H](O)[C@H]6O)CC[C@]5(C)[C@H]4CC[C@]3(C)[C@H]1[C@@H]2C	3.14 µg/mL
C[C@H]1O[C@@H](O[C@H]2CC[C@@]3(C)C(=CC[C@H]4[C@@H]5C[C@@H]6O[C@]7(CC[C@@H](CO[C@@H]8O[C@H](CO)[C@@H](O)[C@H](O)[C@H]8O)CO7)[C@@H](C)[C@@H]6[C@@]5(C)C(=O)C[C@@H]43)C2)[C@H](O)[C@@H](O)[C@H]1O[C@@H]1O[C@H](CO)[C@@H](O)[C@H](O)[C@H]1O [POLYGONATOSIDE A]	5.06 µg/mL
C[C@H]1[C@H]2[C@H](C[C@H]3[C@@H]4CC=C5C[C@@H](O[C@@H]6O[C@H](CO)[C@H](O[C@@H]7O[C@H](CO)[C@@H](O)[C@H](O)[C@H]7O)[C@H](O)[C@H]6O)CC[C@]5(C)[C@H]4CC(=O)[C@]23C)O[C@]12CC[C@@H](CO[C@@H]1O[C@H](CO)[C@@H](O)[C@H](O)[C@H]1O)CO2	5.13 µg/mL
C[C@@H]1CC[C@@]2(OC1)O[C@H]1C[C@H]3[C@@H]4CC=C5C[C@@H](O[C@@H]6O[C@H](CO)[C@@H](O[C@@H]7OC[C@@H](O)[C@@H](O)[C@@H]7O)[C@H](O)[C@H]6O[C@@H]6O[C@@H](C)[C@H](O)[C@@H](O)[C@H]6O)CC[C@]5(C)[C@H]4CC[C@]3(C)[C@H]1[C@@H]2C	14.6 µg/mL
C[C@H]1O[C@@H](O[C@H]2CC[C@@]3(C)C(=CC[C@H]4[C@@H]5C[C@@H]6O[C@@]7(OC[C@H](CO)C[C@@H]7O)[C@@H](C)[C@@H]6[C@@]5(C)C(=O)C[C@@H]43)C2)[C@H](O)[C@@H](O)[C@H]1O[C@@H]1O[C@H](CO)[C@@H](O)[C@H](O)[C@H]1O [POLYGONATOSIDE C]	7.45 µg/mL
CC1=CC(=O)CC(C)(C)[C@H]1CC[C@@H](C)O[C@@H]1O[C@H](CO[C@@H]2O[C@H](CO)[C@@H](O)[C@H](O)[C@H]2O)[C@@H](O)[C@H](O)[C@H]1O	20.1 µg/mL

Short answer for C[C@@H]1CC[C@@]2(OC1)O[C@H]1C[C@H]3[C@@H]4CC=C5C[C@@H](O[C@@H]6O[C@H](CO)[C@@H](O)[C@H](O)[C@H]6O[C@@H]6O[C@@H](C)[C@H](O)[C@@H](O)[C@H]6O)CC[C@]5(C)[C@H]4CC[C@]3(C)[C@H]1[C@@H]2C : IC50 was 6.23 µg/mL
